- study_target: human TREX2 (residues M44-A279) (Homo sapiens (Human), UniProt Q9BQ50)
- Sequence (Q9BQ50 whole entry, the tested form may be a part): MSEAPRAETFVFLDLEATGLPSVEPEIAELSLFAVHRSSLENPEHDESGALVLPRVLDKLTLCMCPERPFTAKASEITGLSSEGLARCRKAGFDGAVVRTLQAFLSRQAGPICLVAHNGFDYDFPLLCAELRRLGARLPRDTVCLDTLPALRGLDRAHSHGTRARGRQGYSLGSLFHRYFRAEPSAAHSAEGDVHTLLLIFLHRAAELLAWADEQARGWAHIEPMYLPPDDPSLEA
- experiment_notes: TREX2 Biochemical Assay (fluorescence assay measuring degradation of dsDNA substrate)
- cond: 2.5 nM TREX2, 60 nM dsDNA substrate, 25 minutes at room temperature
measurement_type: IC50

                                    molecule  measurement_type        result
 0  Cn1c(C2CCCN(C(=O)c3cccc(Cl)c3)C2)nc(C(=O)Nc2cnoc2)c(O)c1=O (centres unmarked)              IC50    1 to 10 µM
 1  Cc1cc(-c2ccn(C)n2)cc(-c2nc(C(=O)Nc3cnoc3)c(O)c(=O)n2C)c1              IC50    1 to 10 µM
 2  Cn1c(C2CCCN(C(=O)c3ccc(Cl)cc3)C2)nc(C(=O)Nc2cnoc2)c(O)c1=O (centres unmarked)              IC50    1 to 10 µM
 3  Cn1c(N2CCC[C@H](c3ccccn3)C2)nc(C(=O)Nc2cnoc2)c(O)c1=O              IC50  10 to 100 µM
 4  Cn1c(N2CCC[C@H]2c2ccncc2)nc(C(=O)Nc2cnoc2)c(O)c1=O              IC50  10 to 100 µM
 5  Cc1cc(-c2nc(C(=O)Nc3cnoc3)c(O)c(=O)n2C)cc(N2CCN(C)CC2)c1              IC50  10 to 100 µM
 6  Cn1c(N2CC[C@@H](c3ccccc3)C2)nc(C(=O)Nc2cnoc2)c(O)c1=O              IC50  10 to 100 µM
 7  Cn1c(Cc2ccccn2)nc(C(=O)Nc2cnoc2)c(O)c1=O              IC50  10 to 100 µM
 8  Cc1cccc(-c2nc(C(=O)Nc3cnoc3)c(O)c(=O)n2C)c1              IC50  10 to 100 µM
 9  Cn1c(N2CCN(c3ccccn3)C[C@@H]2c2ccccc2Cl)nc(C(=O)Nc2cnoc2)c(O)c1=O              IC50        < 1 µM
10  Cn1c(N2CC(Oc3ccccc3)C2)nc(C(=O)Nc2cnoc2)c(O)c1=O              IC50  10 to 100 µM
11  Cn1c(Cc2ccccc2)nc(C(=O)Nc2cnoc2)c(O)c1=O              IC50  10 to 100 µM
12  Cc1cc(Nc2cnn(C)c2)cc(-c2nc(C(=O)Nc3cnoc3)c(O)c(=O)n2C)c1              IC50    1 to 10 µM
13  Cn1c([C@H]2CCCN(C(=O)c3ccc(Cl)c(Cl)c3)C2)nc(C(=O)Nc2cnoc2)c(O)c1=O              IC50        < 1 µM
14  Cn1c(-c2ccccc2)nc(C(=O)Nc2cnoc2)c(O)c1=O              IC50  10 to 100 µM
15  Cn1c(N2CCC[C@H](C(N)=O)C2)nc(C(=O)Nc2cnoc2)c(O)c1=O              IC50  10 to 100 µM
16  C[C@@H]1CC[C@H](c2nc(C(=O)Nc3cnoc3)c(O)c(=O)n2C)CN1C(=O)c1ccc(Cl)c(Cl)c1              IC50  10 to 100 µM

meta.source: patent US12172990B2
